- method.notes: viability loss in pontine glioma line – cell-based, SU-DIPG-XXV, MIPE5.0, CellTiter-Glo, qHTS, dose response (AID 1347065);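 note: cells exposed to compound for 48 hours before ATP readout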
- test.settings: CellTiter-Glo ATP luminescence
Results filed as inconclusive are left out. Active and inactive are the calls of the source. No cut-off is given here; in the data, nearly all actives have AC50 up to about 26 µM.
Outcome (select one): active, inactive

Q: Identify the outcome logged in this assay for the compound shown: "CNC(=O)c1ccccc1Nc1nc(Nc2ccc3c(c2OC)CCC[C@@H](N2CCN(CCO)CC2)C3)ncc1Cl"
Result: active

Q: Identify the outcome logged in this assay for the compound shown: "CN(C)c1ccc(-c2nc3ncc(Cl)c(N4CCN(CC(=O)Nc5nccs5)CC4)c3[nH]2)cc1"
Result: active

Q: Identify the outcome logged in this assay for the compound shown: "CCn1nc(C2CCN(C(=O)CCO)CC2)nc1-c1cnc(N)c(-c2nnc(C(C)(C)C)o2)n1"
Result: active

Q: Identify the outcome logged in this assay for the compound shown: "CCOC(=O)N1CCN(/[N+]([O-])=N/Oc2ccc([N+](=O)[O-])cc2[N+](=O)[O-])CC1"
Result: active

Q: Identify the outcome logged in this assay for the compound shown: "CNC(=O)c1nn(C)c2c1C(C)(C)Cc1cnc(Nc3ccc(N4CCN(C)CC4)cc3)nc1-2"
Result: active

Q: Identify the outcome logged in this assay for the compound shown: "CC1(COc2ccc3c(c2)ncn3-c2ccc3cccc(N4CCC(N)CC4)c3n2)COC1"
Result: active

Q: Identify the outcome logged in this assay for the compound shown: "O=C1CCCC(=O)C1C(=O)c1ccc(C(F)(F)F)cc1[N+](=O)[O-]"
Result: inactive

Q: Identify the outcome logged in this assay for the compound shown: "COc1cc2ncnc(Nc3cccc(Cl)c3)c2cc1OC"
Result: active

Q: Identify the outcome logged in this assay for the compound shown: CCCCNc1ncc(-c2ccc(CN3CCOCC3)cn2)c(NC2CCC(O)CC2)n1 (centres undefined)
Result: active

Q: Identify the outcome logged in this assay for the compound shown: "CCc1ccc(N(CC(C)C)S(=O)(=O)c2ccc(OCC3CCOCC3)c(CO)c2)cc1"
Result: active

Q: Identify the outcome logged in this assay for the compound shown: "O=C1NC(=O)C(c2cnc3ccccn23)=C1c1cn2c3c(cccc13)CN(C(=O)N1CCOCC1)CC2"
Result: active

Q: Identify the outcome logged in this assay for the compound shown: "O=C1CC[C@H](N2Cc3c(OCc4ccc(CN5CCOCC5)cc4)cccc3C2=O)C(=O)N1"
Result: inactive

Q: Identify the outcome logged in this assay for the compound shown: "Nc1ccc(C(=O)Nc2cccc(-c3nc(N4CCOCC4)c4oc5ncccc5c4n3)c2)cn1"
Result: active

Q: Identify the outcome logged in this assay for the compound shown: "CC(C)(C)NC(=O)c1cncn1C1CCN(c2ccc(-c3nnc(C(F)(F)F)o3)cn2)CC1"
Result: active

Q: Identify the outcome logged in this assay for the compound shown: "CCCCN(CCCC)C(=O)CN1C[C@H](c2ccc3c(c2)OCO3)[C@@H](C(=O)O)[C@@H]1c1ccc(OC)cc1"
Result: inactive

Q: Identify the outcome logged in this assay for the compound shown: "O=C(NC[C@H](O)CN1CCc2ccccc2C1)c1cc(NC2COC2)ncn1"
Result: inactive

Q: Identify the outcome logged in this assay for the compound shown: "Cc1cc(Nc2cc(NC(=O)c3c(Cl)cccc3Cl)ccn2)nc(N)n1"
Result: active

Q: Identify the outcome logged in this assay for the compound shown: "COc1cc2ncnc(Nc3ccc(F)c(Cl)c3)c2cc1NC(=O)/C=C/CN1CCCCC1"
Result: active

Q: Identify the outcome logged in this assay for the compound shown: "Nc1ccccc1NC(=O)c1ccc(CNc2nccc(-c3cccnc3)n2)cc1"
Result: active

====

- method.notes: growth inhibition of DIPG cells – cell-based, MIPE5.0 library, qHTS (AID 1347068);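 for IC50: cells exposed to compound for 48 hours before viability readout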
- test.settings: SU-DIPG-XXV viability
Inconclusive results are not listed. Active and inactive are the calls of the source. Cut-off not given; nearly all actives show IC50 up to about 30 µM. Where a SMILES comes first, the peptide text is derived from it. The star is where a group is joined. Cbz = O=C(OCc1ccccc1)*
Outcome (select one): TRUE (active), FALSE (inactive)

Q: Identify the outcome logged in this assay for the compound shown: "CC(=O)N1CCN(c2ccc(NC(=O)Cc3cnc(-c4ccnc(F)c4)c(C)c3)nc2)CC1"
Result: FALSE

Q: Identify the outcome logged in this assay for the compound shown: "CC(C)Oc1ccc(-c2nn([C@@H](C)c3oc4ccc(F)cc4c(=O)c3-c3cccc(F)c3)c3ncnc(N)c23)cc1F"
Result: FALSE

Q: Identify the outcome logged in this assay for the compound shown: "O=C(Nc1ccc2c(c1)CCN(Cc1ncn[nH]1)C2)c1ccccc1-c1ccc(C(F)(F)F)cc1"
Result: FALSE

Q: Identify the outcome logged in this assay for the compound shown: "COc1ccc(/C=C\c2cc(OC)c(OC)c(OC)c2)cc1NC(=O)[C@H](N)CO"
Result: TRUE

Q: Identify the outcome logged in this assay for the compound shown: CC(C)C[C@@H](C=O)NC(=O)[C@H](CC(C)C)NC(=O)[C@H](CC(C)C)NC(=O)OCc1ccccc1 (Cbz-Leu-Leu-Leu-aldehyde)
Result: TRUE

Q: Identify the outcome logged in this assay for the compound shown: "Cc1cccc(-c2[nH]ncc2-c2ccc3ncccc3n2)n1"
Result: FALSE

Q: Identify the outcome logged in this assay for the compound shown: "CC[C@@H](Oc1cccc(CN(CCCOc2ccc(OC)cc2)c2nc3ccccc3o2)c1)C(=O)O"
Result: FALSE

Q: Identify the outcome logged in this assay for the compound shown: "O=C1NC(=O)/C(=C/c2ccc3nccnc3c2)S1"
Result: FALSE

Q: Identify the outcome logged in this assay for the compound shown: "CC(C)C[C@@H](N)[C@H](O)C(=O)N[C@H](C(=O)N[C@H](C(=O)N[C@@H](CC(=O)O)C(=O)O)C(C)C)C(C)C"
Result: FALSE

Q: Identify the outcome logged in this assay for the compound shown: CNC(=O)Cn1cc(-c2ccc3c(c2)C(F)CC32NC(=O)N(CC(=O)N(Cc3ccc(F)cc3)C(C)C(F)(F)F)C2=O)cn1 (stereo not drawn)
Result: FALSE

Q: Identify the outcome logged in this assay for the compound shown: CNCCN(C)Cc1cn[nH]c1-c1ccc(OC2CC(OCCC3CCOCC3)C2)cc1 (stereo not drawn)
Result: FALSE

Q: Identify the outcome logged in this assay for the compound shown: "NC[C@@](O)(c1ccc(Cl)cc1)c1ccc(-c2cn[nH]c2)cc1"
Result: TRUE

Q: Identify the outcome logged in this assay for the compound shown: "NS(=O)(=O)c1cccc2c1C(=O)c1cccc(O)c1C2=O"
Result: TRUE

Q: Identify the outcome logged in this assay for the compound shown: "Cc1cccc(-c2[nH]ncc2-c2ccc(F)c(-c3cnn(CCO)c3)c2)n1"
Result: TRUE

Q: Identify the outcome logged in this assay for the compound shown: "CC(=O)c1cc2c(o1)C(=O)c1ccccc1C2=O"
Result: TRUE

Q: Identify the outcome logged in this assay for the compound shown: "CC(C)C[C@H](NC(=O)[C@@H](NC(=O)c1cccc(-c2ccccc2)n1)[C@@H](C)O)B(O)O"
Result: TRUE

Q: Identify the outcome logged in this assay for the compound shown: "CN(Cc1ccccc1)C(=O)c1ccc(S(=O)(=O)Nc2ccccc2)cc1"
Result: FALSE

Q: Identify the outcome logged in this assay for the compound shown: "COC(=O)c1ccc([C@H]2c3[nH]c4ccccc4c3C[C@H](C(=O)OC)N2C(=O)CCl)cc1"
Result: TRUE

Q: Identify the outcome logged in this assay for the compound shown: "C[C@H](CN(C)C)Oc1nc(Nc2cc3cccc(Cl)c3cn2)cnc1C#N"
Result: FALSE

Q: Identify the outcome logged in this assay for the compound shown: "COc1ccccc1-c1cccc(-c2c(O)c3cc(C#N)c(Cl)cc3[nH]c2=O)c1"
Result: FALSE

Q: Identify the outcome logged in this assay for the compound shown: "O=C(O)c1ccccc1-c1ccc(/C=c2\sc3nc4cc(Br)cnc4n3c2=O)o1"
Result: FALSE

Q: Identify the outcome logged in this assay for the compound shown: "CNc1nccc(-c2cccnc2Oc2cc(C(=O)Nc3cccc(C(F)(F)F)c3)ccc2C)n1"
Result: TRUE

Q: Identify the outcome logged in this assay for the compound shown: "COc1cc2c(NC3CCN(C)CC3)nc(N3CCCN(C)CC3)nc2cc1OCCCN(C)C"
Result: FALSE

Q: Identify the outcome logged in this assay for the compound shown: "Cc1ccc(-c2ccc3ncc4c(c3n2)n(C2CCN(C(=O)[C@H](C)O)CC2)c(=O)n4C)cn1"
Result: TRUE

Q: Identify the outcome logged in this assay for the compound shown: "COc1ccc(-n2c(SCCCN3C(=O)c4cccc5cccc(c45)C3=O)nnc2-c2ccncc2)cc1"
Result: FALSE

Q: Identify the outcome logged in this assay for the compound shown: "CN1CCC(CNc2ccc3ncc(-c4cccc(OC(F)(F)F)c4)n3n2)CC1"
Result: TRUE

Q: Identify the outcome logged in this assay for the compound shown: COc1cc(C)c(Sc2cnc(NC(=O)c3ccc(CNC(C)C(C)C)cc3)s2)cc1C(=O)N1CCN(C(C)=O)CC1 (stereo not drawn)
Result: TRUE

Q: Identify the outcome logged in this assay for the compound shown: "CN1C(=O)N[C@@H](Cc2c[nH]c3c(Cl)cccc23)C1=O"
Result: FALSE

Q: Identify the outcome logged in this assay for the compound shown: "O=C(/C=C/c1ccc(Cl)cc1)N1CCC2(CC1)CN(Cc1ccc(Cl)c(Cl)c1)C(=O)O2"
Result: FALSE

Q: Identify the outcome logged in this assay for the compound shown: "Cn1nccc1Nc1nccc(-c2cc3c(s2)C(C)(C)N(CCN2CCOCC2)C3=O)n1"
Result: FALSE

Q: Identify the outcome logged in this assay for the compound shown: C[C@@H](O)[C@@H](C)Oc1nc(Nc2ccc(S(=N)(=O)C3CC3)cc2)ncc1C(F)(F)F (stereo partly drawn)
Result: FALSE

Q: Identify the outcome logged in this assay for the compound shown: "N=C1CCCN1Cc1[nH]c(=O)[nH]c(=O)c1Cl"
Result: FALSE

Q: Identify the outcome logged in this assay for the compound shown: "Fc1cccc(-n2cnc3c(NCc4nc5c(F)c(F)ccc5[nH]4)nc(N4CCOCC4)nc32)c1"
Result: TRUE

Q: Identify the outcome logged in this assay for the compound shown: "O=C1NC(=O)/C(=C/c2ccc3c(c2)OC(F)(F)O3)S1"
Result: FALSE

Q: Identify the outcome logged in this assay for the compound shown: "CO[C@@H](C)Cn1c(=O)n(C)c2cnc3ccc(-c4cncc(C(C)(C)O)c4)cc3c21"
Result: TRUE

Q: Identify the outcome logged in this assay for the compound shown: "COc1cc(C)[nH]c(=O)c1CN1CCc2c(Cl)cc([C@H](OC)C3COC3)c(Cl)c2C1=O"
Result: FALSE

Q: Identify the outcome logged in this assay for the compound shown: "COc1ccc2c(C(=S)N(C)CC(=O)O)cccc2c1C(F)(F)F"
Result: FALSE

Q: Identify the outcome logged in this assay for the compound shown: "CC1(C)O[C@@H]2C[C@H]3[C@@H]4CCC5=CC(=O)C=C[C@]5(C)[C@H]4[C@@H](O)C[C@]3(C)[C@]2(C(=O)CO)O1"
Result: FALSE
